Attribution: patent US20230192819A1

Biological target: Acro S1 spike protein (SARS-CoV-2) (SARS-CoV-2, UniProt P0DTC2 16-685)
Assay: SPR (Carterra LSA); antibody on chip, spike protein as analyte; summary table
Field: pKd. Provide a value for each of the binders that follow.
API: returns pKd as number; meaning -log10 of concentration in mol/L.

For the binder Antibody 1-2 (Fc fusion) EVQLVESGGGLVQPGGSLRLSCAASGGSEYSYSTFSSFVMGWFRQAPGKERELVASISWSGGHTFYADSVKGRFTISADNSKNTAYLQMNSLKPEDTAVYYCAAYLRGPYYSSFYDSTKYEWGQGTLVTVSS , what pKd is on record?
8.62

And the next one, Antibody 1-10 (Fc fusion) EVQLVESGGGLVQPGSSLRLSCAASGGTFSSIGMGWFRQAPGKEREFVAAISWDGGATAYADSVKGRFTISADNSKNTAYLQMNSLKPEDTAVYYCAKEDVGKPFDWGQGTLVTVSS ?
8.71

And the next one, Antibody 1-7 (Fc fusion) EVQLVESGGGLVQPGGSLRLSCAASGGTFSSIGMGWFRQAPGKEREFVAAISWDGGATAYADSVKGRFTISADNSKNTVYLQMNSLKPEDTAVYYCAKEDVGKPFDWGQGTLVTVSS ?
8.88

Proceed to Antibody 1-1 (Fc fusion) EVQLVESGGGLVQPGGSLRLSCAASGSIGSINAMGWFRQAPGKEREWVAGISNGGTTNYADSVKGRFTISADNSKNTAYLQMNSLKPEDTAVYYCAADGVPEYSDYASGPVWGQGTLVTVSS
9.17

Follow-up item: Antibody 1-13 (Fc fusion) EVQLVESGGGLVQPGGSLRLSCAASGRTTFSSYTMGWFRQAPGKEREFVASITRSGVLNYADSVKGRFTISADNSKNTAYLQMNSLKPEDTAVYYCAKEDVGKPFDWGQGTLVTVSS
7.74
